system: foxtail, giant; experiment: Test C pre-/postemergence herbicide test; assay type: in vivo, Setaria faberii; conditions: Postemergence, 62 g ai/ha; scale 0 (no effect) to 100 (complete control)
The threshold is inclusive: Plant response rating, Foxtail, Giant of exactly 10 counts as Fulfilled; values below receive Not fulfilled.

Some solved entries appear below for comparison.
Molecule	Measured on	Qualitative label
O=C1NCC(c2cccc(OC(F)F)c2)C1C(=O)Nc1ccccc1F (stereo not drawn) [Compound 223]	foxtail, giant	Fulfilled
O=C1NCC(c2cccc(OC(F)F)c2)C1C(=O)Nc1ccc(F)c(F)c1F (stereo not drawn) [Compound 325]	foxtail, giant	Fulfilled
O=C1NCC(c2cc(F)cc(F)c2)C1C(=O)Nc1cccc(F)c1F (racemic) [Compound 279]	foxtail, giant	Fulfilled
O=C1NCC(c2cccc(C(F)(F)F)c2)C1C(=O)Nc1ccc(F)cc1F (racemic) [Compound 207]	foxtail, giant	Not fulfilled
O=C1NCC(c2cccc(Br)c2)C1C(=O)Nc1cccc(F)c1F (stereo not drawn) [Compound 309]	foxtail, giant	Not fulfilled
O=C1NCC(c2ccc(F)cc2)C1C(=O)Nc1cccc(F)c1F (racemic) [Compound 119]	foxtail, giant	Fulfilled
O=C1NCC(c2cccc(C(F)(F)F)c2)C1C(=O)Nc1cccc(Cl)c1F (stereo not drawn) [Compound 316]	foxtail, giant	Not fulfilled

Ask | Given the entry CN1CC(c2ccc(F)c(F)c2)C(C(=O)Nc2ccccc2F)C1=O (stereo not drawn) [Compound 302] , answer whether its Plant response rating, Foxtail, Giant meets or surpasses 10.
Reply | Fulfilled

Values were extracted from patent US10294202B2.
